Sourced from patent US20240254206A1

TARGET UNDER TEST: 2CC-core
TEST SUMMARY: SPR, antigen on chip, IgG injected
VALUE KIND: pKd
Worth noting: pKd values are minus log10 of concentrations stated in mol/L.

Below, each entry is followed by its recorded pKd result.
3BNC156 (antibody, V domains shown, also called 3BNC156HC; 3bnc156kc) VH: QVQLVQSGAALKKPGASLRISCQTYGYKFTDHLIYWWRQAPGQGLEWIGWIKPETGQPSYSYRFQGRVSLTRDTFEEIVFMDLRGLRSDDTAIYFCARRHSDYCDFDVWGGGSQVIVSS VL: DIQMTQSPSSLSASVGDTVTITCQTNKGYLNWYQQKRGRAPKLLMYDGSKLVTGVPSRLSGRRWGTQYNLTIGSLQPEDIATYYCQVYEFFGPGTRLDLKR | 7.09
NIH45-46 (antibody, V domains shown) VH: QVRLSQSGGQMKKPGESMRLSCRASGYEFLNCPINWIRLAPGRRPEWMGWLKPRGGAVNYARKFQGRVTMTRDVYSDTAFLELRSLTSDDTAVYFCTRGKYCTARDYYNWDFEH VL: EIVLTQSPATLSLSPGETAIISCRTSQSGSLAWYQQRPGQAPRLVIYSGSTRAAGIPDRFSGSRWGADYNLSISNLESGDFGVYYCQQYEFFG | 8.36
1B2530 (antibody, V domains shown, also called LSSB2530HC; LSSB2530LC) VH: QVRLEQSGAAMRKPGASVTLSCQASGYNFVKYIIHWVRQKPGLGFEWVGMIDPYRGRPWSAHKFQGRLSLSRDTSMEILYMTLTSLKSDDTATYFCARAEAASDSHSRPIMFDHWGQGSRVTVSS VL: QSALTQPPSASGAPGQRVTISCSGGPSNVGGNYVYWYRQFPGTAPTLLILRDDQRPSGVPDRFSASKSGNSASLAISGLRPDDEGFYFCATYDSDGSIRLFGGGTALTVLS | 8.23
3BNC66 (antibody, V domains shown, also called 3BNC66HC; 3bnc66kc) VH: QVQLVQSGAALKKPGASLRISCQTYGYKFTDHLIYWWRQAPGQGLEWIGWIKPETGQPSYSYRFQGRVSLTRDTFEEIAFMDLRGLRSDDTAIYFCARRHTDYCVFDVWGSGSQIIVSS VL: DIQMTQSPSSLSASVGDTVTITCQTNKGYLNWYQQRRGRAPKLLMYDGSKLVTGVPSRLSGRRWGTQYNLTIGSLQPEDIATYYCQVYEFFGPGTRLDLKR | 7.47

Lookup: Quick one: pKd for 8ANC195 (antibody, V domains shown, also called 8ANC195HC; 8ANC195KC) VH: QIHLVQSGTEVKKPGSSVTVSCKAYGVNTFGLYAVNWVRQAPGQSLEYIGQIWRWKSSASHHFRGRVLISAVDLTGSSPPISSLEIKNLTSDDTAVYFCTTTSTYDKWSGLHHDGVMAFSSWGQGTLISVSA VL: DIQMTQSPSTLAASIGGTVRVSCRASQSITGNWVAWYQQRPGKAPRLLIYRGAALLGGVPSRFSGSAAGTDFTLTIGNLQAEDFGTFYCQQYDTYPGTFGQGTKVEVKR ?
Found: 7.26
